# Target: New Delhi metallo-β-lactamase-1 (NDM-1) (Klebsiella pneumoniae, UniProt C7C422)
# Method Description: SPR (also fluorescence quenching; purified enzyme inhibition with meropenem, IC50 […])
Outcome Measure: Kd (µM)
Provide only the numeric value, understood in µM.

CCCCCCCCCCCCc1ccc(S(=O)(=O)Nc2nncs2)cc1 [PHT427] yielded Kd of 62.8

---

# Target: New Delhi metallo-β-lactamase-1 (NDM-1) (Klebsiella pneumoniae, UniProt C7C422, N220A)
# Sequence (C7C422 29-270 N220A): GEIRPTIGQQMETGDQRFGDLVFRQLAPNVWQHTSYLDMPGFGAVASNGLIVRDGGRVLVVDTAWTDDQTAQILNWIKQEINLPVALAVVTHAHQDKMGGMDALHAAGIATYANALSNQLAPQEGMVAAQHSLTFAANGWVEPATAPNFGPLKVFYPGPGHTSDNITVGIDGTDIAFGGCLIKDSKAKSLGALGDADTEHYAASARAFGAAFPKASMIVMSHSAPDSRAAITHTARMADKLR
# Method Description: SPR
Outcome Measure: Kd (µM)
Give the quantity in µM, number only.

The compound listed as `CCCCCCCCCCCCc1ccc(S(=O)(=O)Nc2nncs2)cc1` shows Kd equal to 896
